System: HEK-293T
Assay text: Multiplex assay against HEK293T
Type: toxicity, cell-based
Test parameters: human, 12 h, 1 µM, compound concentration 1 uM, replicate 2
Below, each of the compounds is paired with its reported Population Apoptotic (%) value.
Give the number; % is assumed, so skip it.

{"Compound": "CCOc1cc2ncc(C#N)c(Nc3ccc(OCc4cccc(F)c4)c(Cl)c3)c2cc1NC(=O)/C=C/CN(C)C", "Scale unit": "%", "Meas value": 10}
{"Compound": "Cc1nc(Cc2cccc(C(F)(F)F)c2)sc1-c1ccc(C(N)=O)nc1 [TP-024n]", "Scale unit": "%", "Meas value": 10}
{"Compound": "c1ccc2oc(-c3csc(C4CCN(Cc5nc6ncccc6[nH]5)CC4)n3)cc2c1", "Scale unit": "%", "Meas value": 13}
{"Compound": "Cc1cc2c(cc1N1C(=O)c3cccc4c(CCCO)ccc(c34)C1=O)n(C)c(=O)n2C", "Scale unit": "%", "Meas value": 12}

What Population Apoptotic (%) value was documented for this compound, CC(C)Oc1ccc(C(=O)N[C@H](CNC(=O)CN(C)C)Cc2ccc(-c3cn4cccc([C@H](C)O)c4n3)cc2)cc1Cl [GSK-923295A] ?
7

Data request, read-out Population Apoptotic (%), for Nc1nc2c(c(N3CCNCC3)n1)CCC1=C2[C@@H]2CCCC[C@@H]2O1
21

Given the entry CCOc1cc(N2CCC(O)CC2)ccc1Nc1ncc2c(n1)N(C1CCCC1)CCC(=O)N2C , report its measured Population Apoptotic (%).
4

Name the reported Population Apoptotic (%) value associated with the compound CC(C)(C)c1cnc(CSc2cnc(NC(=O)C3CCNCC3)s2)o1
21

Data request, read-out Population Apoptotic (%), for CC(=O)c1cc(-c2cc(C(=O)NC3CC3)ccc2C)c2ncccn12
16

* * *

System: U2OS
Assay text: Multiplex assay against U2OS
Assay type: toxicity, cell-based
Test parameters: human, 24 h, 1 µM, compound concentration 1 uM, replicate 1
Define the label as true (1) when Total Cell Count is strictly less than 200 and as false (0) in all remaining cases.

{"Compound": "CCOc1cc2ncc(C#N)c(Nc3ccc(OCc4cccc(F)c4)c(Cl)c3)c2cc1NC(=O)/C=C/CN(C)C", "Tested target": "U2OS", "Category label": "true (1)"}
{"Compound": "CCC(=O)O[C@]1(C(=O)SCF)[C@H](C)C[C@H]2[C@@H]3C[C@H](F)C4=CC(=O)C=C[C@]4(C)[C@@]3(F)[C@@H](O)C[C@@]21C [FLUTICASONE PROPIONATE]", "Tested target": "U2OS", "Category label": "false (0)"}
{"Compound": "Nc1ccc(C(=O)Nc2cccc(-c3nc(N4CCOCC4)c4oc5ncccc5c4n3)c2)cn1", "Tested target": "U2OS", "Category label": "false (0)"}
{"Compound": "O=C(O)c1ccc2cc(-c3ccc(O)c(C45CC6CC(CC(C6)C4)C5)c3)ccc2c1", "Tested target": "U2OS", "Category label": "true (1)"}
{"Compound": "Cc1cn(-c2cc(NC(=O)c3ccc4c(c3)CN(c3cncnc3)C[C@@H]4C)cc(C(F)(F)F)c2)cn1", "Tested target": "U2OS", "Category label": "false (0)"}

Query compound follows.
In the record for CCn1c(-c2nonc2N)nc2cnc(Oc3cccc(NC(=O)c4ccc(OCCN5CCOCC5)cc4)c3)cc21 [GSK-269962A] , is Total Cell Count less than 200?
true (1)

* * *

Test system: HEK-293T
Assay text: Multiplex assay against HEK293T
Assay type: toxicity, cell-based
Test parameters: human, 24 h, 10 µM, compound concentration 10 uM, replicate 2
# Population Pyknosed Nuclei (%) annotations
The response must be a number in % with no trailing unit.

Please review the entries below; each comes with its answer.
{"Line notation": "Cl.Cl.Nc1ncnc2c1c(-c1cccc(OCc3ccccc3)c1)cn2[C@H]1C[C@@H](CN2CCC2)C1", "Meas value": 64}
{"Line notation": "Cc1cc2c(cc1N1C(=O)c3cccc4c(CCCO)ccc(c34)C1=O)n(C)c(=O)n2C", "Meas value": 30}

Name the recorded Population Pyknosed Nuclei (%) for CCOc1cc(N2CCC(O)CC2)ccc1Nc1ncc2c(n1)N(C1CCCC1)CCC(=O)N2C .
1

I have this compound here, CCc1cc2c(cc1CC)CC(NC[C@H](O)c1ccc(O)c3[nH]c(=O)ccc13)C2 , and I need its recorded Population Pyknosed Nuclei (%).
74

Which Population Pyknosed Nuclei (%) is reported for this compound? Nc1nc2c(c(N3CCNCC3)n1)CCC1=C2[C@@H]2CCCC[C@@H]2O1
54

Which Population Pyknosed Nuclei (%) value is on record for Nc1ccc(C(=O)Nc2cccc(-c3nc(N4CCOCC4)c4oc5ncccc5c4n3)c2)cn1 ?
69

* * *

The entries below are paired with their reported Population Tubulin-Different-Phenotype (%).
Tested on: Fibroblast
Assay text: Multiplex assay against human fibroblast
Assay type: toxicity, cell-based
Test parameters: 12 h, 1 µM, compound concentration 1 uM, replicate 1
Answer format: numeric, % implied, no suffix.

{"Compound": "COc1ccc(NS(=O)(=O)c2sc3ccc(Cl)cc3c2C)cc1N1CCNCC1.Cl", "Tested target": "Fibroblast", "Meas value": 30}
{"Compound": "Cc1cc2c(cc1N1C(=O)c3cccc4c(CCCO)ccc(c34)C1=O)n(C)c(=O)n2C", "Tested target": "Fibroblast", "Meas value": 41}
{"Compound": "CCn1c(-c2nonc2N)nc2cnc(Oc3cccc(NC(=O)c4ccc(OCCN5CCOCC5)cc4)c3)cc21 [GSK-269962A]", "Tested target": "Fibroblast", "Meas value": 46}

Please look at the following compound next.
Can you share its Population Tubulin-Different-Phenotype (%)? I mean this compound: CC(=O)c1cc(-c2cc(C(=O)NC3CC3)ccc2C)c2ncccn12
42

* * *

Test system: U2OS
Assay text: Multiplex assay against U2OS
Type: toxicity, cell-based
Test parameters: human, 24 h, 1 µM, compound concentration 1 uM, replicate 1
Readout type: Population Healthy Nuclei (%)
Report as a plain number; the unit % is understood.

Some compounds with known Population Healthy Nuclei (%) results, for comparison:
{"Compound": "Cc1cc2c(cc1N1C(=O)c3cccc4c(CCCO)ccc(c34)C1=O)n(C)c(=O)n2C", "Readout type": "Population Healthy Nuclei (%)", "Meas value": 80}
{"Compound": "CN(C)C/C=C/C(=O)Nc1cc2c(Nc3ccc(F)c(Cl)c3)ncnc2cc1O[C@H]1CCOC1.O=C(O)/C=C\\C(=O)O.O=C(O)/C=C\\C(=O)O [AFATINIB DIMALEATE]", "Readout type": "Population Healthy Nuclei (%)", "Meas value": 85}
{"Compound": "Cl.Cl.Nc1ncnc2c1c(-c1cccc(OCc3ccccc3)c1)cn2[C@H]1C[C@@H](CN2CCC2)C1", "Readout type": "Population Healthy Nuclei (%)", "Meas value": 69}

I would be grateful if you could share the reported Population Healthy Nuclei (%) for CCC(=O)O[C@]1(C(=O)SCF)[C@H](C)C[C@H]2[C@@H]3C[C@H](F)C4=CC(=O)C=C[C@]4(C)[C@@]3(F)[C@@H](O)C[C@@]21C [FLUTICASONE PROPIONATE] .
86

Look at this compound and give its reported Population Healthy Nuclei (%). COc1ccc(NS(=O)(=O)c2sc3ccc(Cl)cc3c2C)cc1N1CCNCC1.Cl
76

What value of Population Healthy Nuclei (%) has been reported for the following compound? CNC(=O)c1cc(Oc2ccc(NC(=O)Nc3cc(C(C)(C)C)nn3-c3ccc4ncccc4c3)c(F)c2)ccn1
84

Which Population Healthy Nuclei (%) is listed for CN(C)CCOc1ccc(-c2nc(-c3ccncc3)c(-c3ccc4c(c3)CC/C4=N\O)[nH]2)cc1 ?
38

* * *

# Total Cell Count listing for each entry below
Tested on: Fibroblast
Assay text: Multiplex assay against human fibroblast
Format: toxicity, cell-based
Test parameters: 48 h, 1 µM, compound concentration 1 uM, replicate 2
Respond numerically, and do not add a unit to the figure.

Record excerpt, results attached:
{"Molecule": "Cc1nc(Cc2cccc(C(F)(F)F)c2)sc1-c1ccc(C(N)=O)nc1 [TP-024n]", "Tested target": "Fibroblast", "Meas value": 98}
{"Molecule": "Nc1nc2c(c(N3CCNCC3)n1)CCC1=C2[C@@H]2CCCC[C@@H]2O1", "Tested target": "Fibroblast", "Meas value": 204}
{"Molecule": "Nc1ccc(C(=O)Nc2cccc(-c3nc(N4CCOCC4)c4oc5ncccc5c4n3)c2)cn1", "Tested target": "Fibroblast", "Meas value": 205}
{"Molecule": "CC(=O)c1cc(-c2cc(C(=O)NC3CC3)ccc2C)c2ncccn12", "Tested target": "Fibroblast", "Meas value": 101}

Give the reported Total Cell Count for CC(C)N1CCC(C)(C)c2cc(C#Cc3ccc(C(=O)O)cc3)ccc21 (system: Fibroblast).
198

* * *

Tested on: HEK-293T
Assay text: Incucyte cell viability with HEK293T; further: filed as whole numbers so only -1 and 0 and 1 occur
Assay type: toxicity, cell-based
Test parameters: human, 0 h, 10 µM, compound concentration 10 uM, replicate number 2, timepoint 0 hours
Reported Growth Rate by item:

{"Line notation": "C[C@H]1CCCN1Cc1nc2cc(NC(=O)c3ccc4cnccc4c3)ccc2[nH]1", "Meas value": 0}
{"Line notation": "CNC(=O)c1cc(Oc2ccc(NC(=O)Nc3cc(C(C)(C)C)nn3-c3ccc4ncccc4c3)c(F)c2)ccn1", "Meas value": 0}
{"Line notation": "COc1cc2c(NC3CCN(C(C)C)CC3)nc(N3CCC(F)(F)CC3)nc2cc1OCCCN1CCCC1", "Meas value": 1}
{"Line notation": "CN1C(=O)[C@@H](N2CCc3c(nn(Cc4ccccc4)c3Br)C2=O)COc2ccccc21", "Meas value": 1}
{"Line notation": "N#CC1(c2ccccn2)CCN(Cc2cc(C(=O)N3CCCC3)c(=O)n3ccccc23)CC1", "Meas value": 0}
{"Line notation": "Cc1cnc(-c2cc(Cl)ccc2F)cc1-n1c(=O)n(CC(N)=O)c2cnccc21", "Meas value": 1}
{"Line notation": "CCC(=O)N[C@@H]1CC[C@H](C(=O)N(C)c2ccc(-c3nc4ccccc4o3)cc2)C1", "Meas value": 1}
{"Line notation": "COc1cc2c(cc1-c1c(C)noc1C)ncc1[nH]c(=O)n([C@H](C)c3ccccn3)c12", "Meas value": 0}
{"Line notation": "Cc1cc(C)c(N)c(C#Cc2cccc(F)c2)n1.Cl", "Meas value": 0}

Then this compound:
For FC(F)(F)c1c(N2CCC(c3ccccc3)CC2)ccn2c(CC3CC3)nnc12 , what is its reported Growth Rate?
0
